# Test system: BxPC3FP5
# assay_name: Proliferation panel assay, BxPC3FP5
# Type: cell-based
# protocol_conditions: 120 h; Pancreas, BxPC3FP5, 5 days; read-out: Cellular Proliferation EC50
# Procedure: The impact of compounds of the Examples on cancer cell proliferation was determined using the breast cancer cell line MX-1 (ATCC) in a 3-day proliferation assay. […] Luminescence readings from the Cell Titer Glo assay were normalized to the DMSO treated cells and analyzed using the GraphPad Prism software with sigmoidal curve fitting to obtain EC50s. The minimum significant ratio (MSR) was determined to evaluate assay reproducibility (Eastwood et al., (2006) J Biomol Screen, 11: 253-261). […]

[
  {
    "smiles": "Cc1[nH]c(-c2cc(NS(C)(=O)=O)ccc2Oc2ccccc2)c2c1C(=O)CCC2",
    "measure_unit": "nM",
    "EC50": 70
  }
]

----------
# Test system: PC3M
# assay_name: Proliferation panel assay, PC3M
# Type: cell-based
# protocol_conditions: Homo sapiens, PC-3M, 120 h, Prostate, 5 days, read-out: Cellular Proliferation EC50
readout_name: EC50 (nM)

[
  {
    "smiles": "Cc1[nH]c(-c2cc(NS(C)(=O)=O)ccc2Oc2ccccc2)c2c1C(=O)CCC2",
    "result_number": 410
  }
]

----------
# Test system: Raji
# assay_name: Proliferation panel assay, Raji
# Assay type: cell-based
# protocol_conditions: Homo sapiens, 120 h, Burkitt lymphoma, 5 days, read-out: Cellular Proliferation EC50

[
  {
    "smiles": "Cc1[nH]c(-c2cc(NS(C)(=O)=O)ccc2Oc2ccccc2)c2c1C(=O)CCC2",
    "target_or_system": "Raji",
    "EC50, nM": 36
  }
]

----------
# target_or_system: BRD4 (BDI_K57-E168) (Homo sapiens (Human), UniProt O60885)
# assay_name: TR-FRET bromodomain binding assay, BRD4 first bromodomain
# protocol_conditions: His-tagged BD1, 100 nM Alexa647 probe
readout_name: Ki

[
  {
    "compound": "Cc1[nH]c(-c2cc(NS(=O)(=O)N(C)C)ccc2Oc2ccc(F)cc2F)c2c1C(=O)CCC2 [Example 49]",
    "target_or_system": "BRD4 (BDI_K57-E168) (Homo sapiens (Human), UniProt O60885)",
    "result": "0.043 µM"
  },
  {
    "compound": "Cc1[nH]c(-c2ccccc2Cl)c2c1C(=O)CCC2 [Example 15]",
    "target_or_system": "BRD4 (BDI_K57-E168) (Homo sapiens (Human), UniProt O60885)",
    "result": "1.14 µM"
  },
  {
    "compound": "Cc1[nH]c(-c2ccccc2OCc2cccc3cccnc23)c2c1C(=O)CCC2 [Example 35]",
    "target_or_system": "BRD4 (BDI_K57-E168) (Homo sapiens (Human), UniProt O60885)",
    "result": "9.14 µM"
  },
  {
    "compound": "Cc1[nH]c(-c2cc(NS(C)(=O)=O)ccc2Oc2ccc(F)cc2F)c2c1C(=O)CCC2 [Example 46]",
    "target_or_system": "BRD4 (BDI_K57-E168) (Homo sapiens (Human), UniProt O60885)",
    "result": "0.014 µM"
  },
  {
    "compound": "Cc1[nH]c(-c2ccccc2OCc2cccc3ccsc23)c2c1C(=O)CCC2 [Example 36]",
    "target_or_system": "BRD4 (BDI_K57-E168) (Homo sapiens (Human), UniProt O60885)",
    "result": "8.83 µM"
  },
  {
    "compound": "Cc1[nH]c(-c2ccccc2O)c2c1C(=O)CCC2 [Example 28]",
    "target_or_system": "BRD4 (BDI_K57-E168) (Homo sapiens (Human), UniProt O60885)",
    "result": "5.31 µM"
  },
  {
    "compound": "COc1ccccc1-c1[nH]c(C)c2c1CCCC2=O [Example 6]",
    "target_or_system": "BRD4 (BDI_K57-E168) (Homo sapiens (Human), UniProt O60885)",
    "result": "2.7 µM"
  },
  {
    "compound": "Cc1[nH]c(-c2ccccc2Oc2ccccc2)c2c1C(=O)CC(C(C)C)C2 (stereo not drawn) [Example 70]",
    "target_or_system": "BRD4 (BDI_K57-E168) (Homo sapiens (Human), UniProt O60885)",
    "result": "1.2 µM"
  },
  {
    "compound": "Cc1[nH]c(-c2cc(S(C)(=O)=O)ccc2OCC2CC2)c2c1C(=O)CCC2 [Example 73]",
    "target_or_system": "BRD4 (BDI_K57-E168) (Homo sapiens (Human), UniProt O60885)",
    "result": "0.034 µM"
  },
  {
    "compound": "Cc1[nH]c(-c2cc(NS(C)(=O)=O)ccc2Sc2ccccc2)c2c1C(=O)CCC2 [Example 44]",
    "target_or_system": "BRD4 (BDI_K57-E168) (Homo sapiens (Human), UniProt O60885)",
    "result": "0.067 µM"
  },
  {
    "compound": "Cc1[nH]c(-c2cccc(C(N)=O)c2)c2c1C(=O)CCC2 [Example 9]",
    "target_or_system": "BRD4 (BDI_K57-E168) (Homo sapiens (Human), UniProt O60885)",
    "result": "0.961 µM"
  },
  {
    "compound": "Cc1[nH]c(-c2ccccc2Oc2ccccc2)c2c1C(=O)CC(C)(C)C2 [Example 63]",
    "target_or_system": "BRD4 (BDI_K57-E168) (Homo sapiens (Human), UniProt O60885)",
    "result": "0.786 µM"
  },
  {
    "compound": "Cc1[nH]c(-c2cc(N)ccc2Sc2ccccc2)c2c1C(=O)CCC2 [Example 43]",
    "target_or_system": "BRD4 (BDI_K57-E168) (Homo sapiens (Human), UniProt O60885)",
    "result": "1.82 µM"
  },
  {
    "compound": "Cc1[nH]c(-c2ccccc2OCC2CCOC2)c2c1C(=O)CCC2 (stereo not drawn) [Example 29]",
    "target_or_system": "BRD4 (BDI_K57-E168) (Homo sapiens (Human), UniProt O60885)",
    "result": "0.315 µM"
  },
  {
    "compound": "Cc1[nH]c(-c2cc(NS(C)(=O)=O)ccc2Oc2ccccc2)c2c1C(=O)CC(C(C)C)C2 (stereo not drawn) [Example 71]",
    "target_or_system": "BRD4 (BDI_K57-E168) (Homo sapiens (Human), UniProt O60885)",
    "result": "0.375 µM"
  },
  {
    "compound": "COc1cccc(-c2[nH]c(C)c3c2CCCC3=O)c1 [Example 20]",
    "target_or_system": "BRD4 (BDI_K57-E168) (Homo sapiens (Human), UniProt O60885)",
    "result": "1.77 µM"
  },
  {
    "compound": "Cc1ccc(-c2[nH]c(C)c3c2CCCC3=O)cc1 [Example 4]",
    "target_or_system": "BRD4 (BDI_K57-E168) (Homo sapiens (Human), UniProt O60885)",
    "result": "2.49 µM"
  },
  {
    "compound": "Cc1ccc(C)c(-c2[nH]c(C)c3c2CC(C)(C)CC3=O)c1 [Example 60]",
    "target_or_system": "BRD4 (BDI_K57-E168) (Homo sapiens (Human), UniProt O60885)",
    "result": "3.37 µM"
  },
  {
    "compound": "Cc1[nH]c(-c2cc(N)ccc2Oc2ccc(F)cc2F)c2c1C(=O)CCC2 [Example 45]",
    "target_or_system": "BRD4 (BDI_K57-E168) (Homo sapiens (Human), UniProt O60885)",
    "result": "0.04 µM"
  },
  {
    "compound": "Cc1[nH]c(-c2cc(NC(=O)c3ccc[nH]3)ccc2Oc2ccc(F)cc2F)c2c1C(=O)CCC2 [Example 51]",
    "target_or_system": "BRD4 (BDI_K57-E168) (Homo sapiens (Human), UniProt O60885)",
    "result": "0.164 µM"
  },
  {
    "compound": "Cc1[nH]c(-c2cc(NS(C)(=O)=O)ccc2Oc2ccccc2)c2c1C(=O)CC(c1ccccc1)C2 (stereo not drawn) [Example 72]",
    "target_or_system": "BRD4 (BDI_K57-E168) (Homo sapiens (Human), UniProt O60885)",
    "result": "7.28 µM"
  },
  {
    "compound": "Cc1[nH]c(-c2ccccc2OCC2CCCO2)c2c1C(=O)CCC2 (stereo not drawn) [Example 31]",
    "target_or_system": "BRD4 (BDI_K57-E168) (Homo sapiens (Human), UniProt O60885)",
    "result": "0.765 µM"
  },
  {
    "compound": "CCS(=O)(=O)Nc1ccc(OC2CCC(F)(F)CC2)c(-c2[nH]c(C)c3c2CCCC3=O)c1 [Example 52]",
    "target_or_system": "BRD4 (BDI_K57-E168) (Homo sapiens (Human), UniProt O60885)",
    "result": "0.009 µM"
  },
  {
    "compound": "Cc1ccc(-c2[nH]c(C)c3c2CCCC3=O)cc1C [Example 12]",
    "target_or_system": "BRD4 (BDI_K57-E168) (Homo sapiens (Human), UniProt O60885)",
    "result": "2.86 µM"
  },
  {
    "compound": "CCS(=O)(=O)Nc1ccc(Oc2ccc(F)cc2F)c(-c2[nH]c(C)c3c2CCCC3=O)c1 [Example 47]",
    "target_or_system": "BRD4 (BDI_K57-E168) (Homo sapiens (Human), UniProt O60885)",
    "result": "0.011 µM"
  },
  {
    "compound": "Cc1cc(C)cc(-c2[nH]c(C)c3c2CCCC3=O)c1 [Example 17]",
    "target_or_system": "BRD4 (BDI_K57-E168) (Homo sapiens (Human), UniProt O60885)",
    "result": "5.51 µM"
  },
  {
    "compound": "Cc1[nH]c(-c2cc(NS(C)(=O)=O)ccc2Oc2ccccc2)c2c1C(=O)CC(C)C2 (stereo not drawn) [Example 67]",
    "target_or_system": "BRD4 (BDI_K57-E168) (Homo sapiens (Human), UniProt O60885)",
    "result": "0.012 µM"
  },
  {
    "compound": "Cc1[nH]c(-c2cccc3cc[nH]c23)c2c1C(=O)CCC2 [Example 22]",
    "target_or_system": "BRD4 (BDI_K57-E168) (Homo sapiens (Human), UniProt O60885)",
    "result": "2.47 µM"
  },
  {
    "compound": "Cc1[nH]c(-c2ccc(S(N)(=O)=O)cc2)c2c1C(=O)CCC2 [Example 5]",
    "target_or_system": "BRD4 (BDI_K57-E168) (Homo sapiens (Human), UniProt O60885)",
    "result": "1.4 µM"
  },
  {
    "compound": "Cc1c2c(c(-c3cc(NS(C)(=O)=O)ccc3Oc3ccccc3)n1C)CCCC2=O [Example 41]",
    "target_or_system": "BRD4 (BDI_K57-E168) (Homo sapiens (Human), UniProt O60885)",
    "result": "0.161 µM"
  },
  {
    "compound": "Cc1[nH]c(-c2ccccc2COc2cccc(C(F)(F)F)c2)c2c1C(=O)CCC2 [Example 23]",
    "target_or_system": "BRD4 (BDI_K57-E168) (Homo sapiens (Human), UniProt O60885)",
    "result": "9.09 µM"
  },
  {
    "compound": "Cc1[nH]c(-c2ccccc2N)c2c1C(=O)CCC2 [Example 3]",
    "target_or_system": "BRD4 (BDI_K57-E168) (Homo sapiens (Human), UniProt O60885)",
    "result": "3.73 µM"
  },
  {
    "compound": "COC(=O)c1ccc(Oc2ccccc2)c(-c2[nH]c(C)c3c2CCCC3=O)c1 [Example 53]",
    "target_or_system": "BRD4 (BDI_K57-E168) (Homo sapiens (Human), UniProt O60885)",
    "result": "0.927 µM"
  },
  {
    "compound": "Cc1[nH]c(-c2ccccc2)c2c1C(=O)CCC2 [Example 1]",
    "target_or_system": "BRD4 (BDI_K57-E168) (Homo sapiens (Human), UniProt O60885)",
    "result": "3.68 µM"
  },
  {
    "compound": "Cc1[nH]c(-c2cc(NS(=O)(=O)CC(F)(F)F)ccc2Oc2ccc(F)cc2F)c2c1C(=O)CCC2 [Example 48]",
    "target_or_system": "BRD4 (BDI_K57-E168) (Homo sapiens (Human), UniProt O60885)",
    "result": "0.068 µM"
  },
  {
    "compound": "Cc1[nH]c(-c2ccc3c(c2)OCO3)c2c1C(=O)CC(C)(C)C2 [Example 58]",
    "target_or_system": "BRD4 (BDI_K57-E168) (Homo sapiens (Human), UniProt O60885)",
    "result": "0.932 µM"
  }
]
